- System: alloxan-induced diabetic mice
- measurement_protocol: In vivo oral hypoglycemic activity, acute study
- condition_context: 6 h after 200 μg/kg body weight orally, diabetic mice
- Method: The percentage change in blood glucose levels in diabetic mice after oral administration of the test compounds, at a concentration of 200 μg/kg body weight, were determined at 2, 4, 6, and 24 hours. The synthesized compounds were screened for hypoglycemic activity in vivo using the alloxan-induced diabetic mice model. For the acute study, animals were fasted overnight and the fasting blood serum glucose (SG) level was determined at 0 hours. […]
metric_name: % Change in SG (%)
State the answer as a number, implicitly in %.

Solved cases (3 shown):
C[C@H]1O[C@H](O[C@H]2[C@H](O)[C@@H](O)[C@@H](O[C@H]3[C@H](O)[C@@H](O)C(O)O[C@@H]3CO)O[C@@H]2CO)[C@H](O)[C@@H](O)[C@@H]1N[C@H]1C=C(CO)[C@@H](O)[C@H](O)[C@H]1O (stereo partly shown) [Acarbose, reference compound] | −20.17
COC(=O)[C@]12CCC(C)(C)C[C@H]1C1=CC[C@@H]3[C@@]4(C)CCC(=O)C(C)(C)[C@@H]4CC[C@@]3(C)[C@]1(C)CC2 | −79.32
CCc1ccc(CCOc2ccc(CC3SC(=O)NC3=O)cc2)nc1 (stereo not shown) [Pioglitazone, reference compound] | −12.34

API: the following record is the query input.
Fetch value of % Change in SG on alloxan-induced diabetic mice for CC1(C)CC[C@]2(C(=O)O)CC[C@]3(C)C(=CC[C@@H]4[C@@]5(C)CC[C@H](O)C(C)(C)[C@@H]5CC[C@]43C)[C@@H]2C1 [Oleanolic acid, reference compound] . −52.17
